Source listed as patent US20260193315A1.

- tested.target: 4-1BB (coated on ELISA plate) (UniProt Q07011 24-186, limits assumed)
- assay.protocol: ELISA on coated 4-1BB, supernatant, OD450
Hi there, I'd appreciate the recorded Binding (25 °C) for every entry that follows.
One number for each entry.

Each of the following entries comes with a recorded value; kindly state Binding (25 °C) for each.
1. 5D9 (ligand, also called 4-1BBL variant 5D9 (phagemid clone, bacterial supernatant)) 4-1BBL variant: ACPWAVSGARASPGSAASPRLREGPELSPDDPAGLLDLRQGMFAQLVAQNVLLIDGPLSFYSDPGLAGVSLTGGLSYKEDTKELVVAKAGVYYVFFQLELRRVVAGTGSGSVSLALHLQPLRSAAGAAALALTVDLPPASSEARNSAFGFQGRLLHLSAGQRLGVHLHTEARARHAWQMTQGATVLGLFRVTPEIPAGLPSPRSE
2. 4E10 (ligand, also called 4-1BBL variant 4E10 (phagemid clone, bacterial supernatant)) 4-1BBL variant: ACPWAVSGARASPGSAASPRLREGPELSPDDPAGLLDLRQGMFAQLVAQNVLLIDGPLSWYPDPGLAGVSLTGGLSYKEDTKELVVAKAGVYYVFFQLELRRVVAREGSGSVSLALHLQPLRSAAGAAALALTVDLPPASSEARNSAFGFQGRLLHLSAGQRLGVHLHTEARARHAMQLTQGATVLGLFRVTPEIPAGLPSPRSE
3. 8E2 (ligand, also called 4-1BBL variant 8E2 (phagemid clone, bacterial supernatant)) 4-1BBL variant: ACPWAVSGARASPGSAASPRLREGPELSPDDPAGLLDLRQGMFAQLVAQNVLLIDGPLSWYPDPGLAGVSLTGGLSYKEDTKELVVAKAGVYYVFFQLELRRVVAFEGSGSVSLALHLQPLRSAAGAAALALTVDLPPASSEARNSAFGFQGRLLHLSAGQRLGVHLHTEARARHSWQLTQGATVLGLFRVTPEIPAGLPSPRSE
4. 1D2 (ligand, also called 4-1BBL variant 1D2 (phagemid clone, bacterial supernatant)) 4-1BBL variant: ACPWAVSGARASPGSAASPRLREGPELSPDDPAGLLDLRQGMFAQLVAQNVLLIDGPLSWYEDPGLAGVSLTGGLSYKEDTKELVVAKAGVYYVFFQLELRRVVAGTGSGSVSLALHLQPLRSAAGAAALALTVDLPPASSEARNSAFGFQGRLLHLSAGQRLGVHLHTEARARHALQLTQGATVLGLFRVTPEIPAGLPSPRSE
5. 8B10 (ligand, also called 4-1BBL variant 8B10 (phagemid clone, bacterial supernatant)) 4-1BBL variant: ACPWAVSGARASPGSAASPRLREGPELSPDDPAGLLDLRQGMFAQLVAQNVLLIDGPLSWYTDPGLAGVSLTGGLSYKEDTKELVVAKAGVYYVFFQLELRRVVAGMGSGSVSLALHLQPLRSAAGAAALALTVDLPPASSEARNSAFGFQGRLLHLSAGQRLGVHLHTEARARHSWQLTQGATVLGLFRVTPEIPAGLPSPRSE
6. 4C2 (ligand, also called 4-1BBL variant 4C2 (phagemid clone, bacterial supernatant)) 4-1BBL variant: ACPWAVSGARASPGSAASPRLREGPELSPDDPAGLLDLRQGMFAQLVAQNVLLIDGPLSWYPDPGLAGVSLTGGLSYKEDTKELVVAKAGVYYVFFQLELRRVVAGRGSGSVSLALHLQPLRSAAGAAALALTVDLPPASSEARNSAFGFQGRLLHLSAGQRLGVHLHTEARARHAWQFTQGATVLGLFRVTPEIPAGLPSPRSE

Response:
[1.43, 1.36, 0.231, 1.16, 1.5, 0.657]
